organism: Rattus norvegicus; assay: Open TG-GATES - Regimen: Daily Repeat; assay type: toxicity, organism-based, Sprague-Dawley; set-up: regimen Daily Repeat, gender Male, age 6 weeks; details: in vivo, po, 0 mg/kg, […], tissue Plasma, route gavage, dose level Control, time 28 day
Property: AST (IU/L)
Just the number please, in IU/L, no unit attached.

Below, each entry is followed by its recorded AST result.
>>> df
                                   molecule  property  assay_value
0  COc1ccc2[nH]c([S+]([O-])Cc3ncc(C)c(OC)c3C)nc2c1 (centres undefined)       AST         64.8
1  CC1=C(/C=C/C(C)=C/C=C/C(C)=C/CO)C(C)(C)CCC1       AST         65.4
2  CCCNC(=O)NS(=O)(=O)c1ccc(Cl)cc1 [CHLORPROPAMIDE]       AST         66.8

Inquiry: Sample CN1C(=O)CN=C(c2ccccc2)c2cc(Cl)ccc21 — what was its AST?
Reply text: 54.2

Inquiry: # query: AST of entry NNC(=O)c1ccncc1
Reply text: 56.4

Inquiry: For O=C(CCCN1CCC(O)(c2ccc(Cl)cc2)CC1)c1ccc(F)cc1 , what is its reported AST?
Reply text: 58.8

Inquiry: # get_value(readout='AST', item= CN(C)CCCN1c2ccccc2CCc2ccccc21 )
Reply text: 55.6

Inquiry: Value lookup for AST; key = CC(C)OC(=O)C(C)(C)Oc1ccc(C(=O)c2ccc(Cl)cc2)cc1 [FENOFIBRATE]
Reply text: 65.8

Inquiry: Quick one: AST of CCOc1ccc(NC(=O)CC(C)O)cc1 (centres undefined) ?
Reply text: 62.4
